# Tested on: U2OS
# Test Method Notes: Multiplex assay against U2OS
# Format: toxicity, cell-based
# Conditions: human, 12 h, 1 µM, compound concentration 1 uM, replicate 1
Measured Population Mitotic Cells (%) by item
Readout Type: Population Mitotic Cells (%)

In [3]: df
Out[3]:
                                   molecule                  readout_type  experimental_value
0  C=CC(=O)Nc1cc(-n2c(=O)ccc3cnc4ccc(-c5ccc(NS(C)(=O)=O)cc5)cc4c32)ccc1C  Population Mitotic Cells (%)                  65
1  N#CCNC(=O)c1ccc(-c2ccnc(Nc3ccc(N4CCOCC4)cc3)n2)cc1 [MOMELOTINIB]  Population Mitotic Cells (%)                  29
2  CC(C)[C@H](CO)Nc1nc(Nc2cccc(Cl)c2)c2ncn(C(C)C)c2n1 [PURVALANOLA]  Population Mitotic Cells (%)                  41
3  Cl.Cn1c2c(c3ccc(Cl)c(Cl)c31)C(C#N)C1(CCNCC1)NC2=O (stereo not drawn)  Population Mitotic Cells (%)                  69
4  Cc1c(Nc2ccc(S(=O)(=O)N3CCN(C)CC3)cc2F)nc2ccc(Nc3cnn(C4CC4)c3)cn2c1=O  Population Mitotic Cells (%)                  50
5  CCCCCNC(=N)N/N=C/c1c[nH]c2ccc(OC)cc12.O=C(O)/C=C\C(=O)O [TEGASEROD MALEATE]  Population Mitotic Cells (%)                  33
6  Cl.NC[C@@H]1O[C@H](C23CC4CC(CC(C4)C2)C3)Cc2c1ccc(O)c2O  Population Mitotic Cells (%)                  40
7  CC(/C=C1\SC(=S)N(CCCC(=O)Nc2ccc(C(=O)O)c(O)c2)C1=O)=C\c1ccccc1  Population Mitotic Cells (%)                  46
